pKi: −log10 of the molar value. Structures can show the parent of a compound that is named as a salt.
The listing below reports pKi for compounds tested on σ1-receptor (Cavia porcellus).

# compound, pKi
rows = [
    ("c1ccc2c(c1)COC21CCN(CCCCOc2cc3ccccn3n2)CC1 [Example 27, oxalate]", 8.04),
    ("c1c(OCCN2CC[C@H]3CCCC[C@@H]3C2)nn2c1CCCC2 [Example 87, maleate]", 8.48),
    ("c1ccc(N2CCN(CCCCOc3cc4ccccn4n3)CC2)cc1 [Example 25, oxalate]", 7.71),
    ("c1c(OCCCCN2CCCCCC2)nn2c1CCCC2 [Example 78, maleate]", 7.58),
    ("c1c(OCCCN2CCCOCC2)nn2c1CCCC2", 7.32),
]

---

# tgt: σ1-receptor (Cavia porcellus)
Structures can show the parent of a compound that is named as a salt.
Threshold 40 nM. Ki below it: y. Ki at it or above: n.

# molecule, assigned_class
rows = [
    ("CN(CCCCOc1cc2n(n1)CCCC2)Cc1ccccc1 [Example 82, maleate]", "y"),
    ("c1ccc2c(c1)COC21CCN(CCOc2cc3ccccn3n2)CC1 [Example 48, dimaleate]", "y"),
    ("c1ccc2c(c1)COC21CCN(CCOc2cc3n(n2)CCCC3)CC1 [Example 74]", "y"),
    ("c1c(OCCCCN2CCCC2)nn2c1CCCC2 [Example 59, oxalate]", "n"),
]

---

# tgt: σ1-receptor (Cavia porcellus, UniProt Q60492)
# Construct: Guinea pig brains were homogenized in 10 vols; (w/v) of Tris-HCl 50 mM 0.32 M sucrose; from tissue; host or cells: guinea pig brain membranes
# Sequence (Q60492 whole entry): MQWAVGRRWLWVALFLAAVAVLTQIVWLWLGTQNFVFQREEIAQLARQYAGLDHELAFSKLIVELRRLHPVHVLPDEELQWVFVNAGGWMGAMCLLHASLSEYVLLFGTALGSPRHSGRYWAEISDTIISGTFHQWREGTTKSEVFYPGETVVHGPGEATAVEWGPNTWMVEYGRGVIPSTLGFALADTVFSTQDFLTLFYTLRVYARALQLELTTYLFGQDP
# test_name: σ1-receptor binding assay, [3H]-(+)-pentazocine, guinea pig brain membranes
# experimental_setup: radioligand [3H]-(+)-pentazocine at 5.0 nM; guinea pig brain membrane; 150 min at 37° C.; nonspecific binding with 1 μM haloperidol
Counter-ions that a name gives are not always drawn.
# if measured Ki < 50 nM: 1  # else: 0

# compound, assigned_class
records = [
    ("CC(C)(C)C1CCN(CCCCOc2cc3n(n2)CCCC3)CC1 [Example 65, maleate]", 1),
    ("c1ccc2c(c1)CCN(CCCCOc1cc3n(n1)CCCC3)C2 [Example 84, maleate]", 1),
    ("CCN(CC)CCCCOc1cc2ccccn2n1 [Example 19, oxalate]", 0),
    ("CN(CCCCOc1cc2n(n1)CCCC2)C1CCN(Cc2ccccc2)CC1 [Example 67, dimaleate]", 0),
    ("c1ccn2nc(COCCCCN3CCCCCC3)cc2c1 [Example 8, maleate]", 1),
    ("c1ccc2c(c1)COC21CCN(CCCCOCc2cc3ccccn3n2)CC1", 1),
    ("c1ccn2nc(OCCCCN3CCOCC3)cc2c1 [Example 17, oxalate]", 0),
    ("c1ccc2c(c1)COC21CCN(CCCCOc2cc3n(n2)CCCC3)CC1", 1),
]

---

Examples of molecules with documented log10 Ki follow.
# tgt: σ1-receptor (Cavia porcellus)
Where a name gives a salt, the structure may show the parent alone.
recorded_endpoint: log10 Ki (log10 of the value in nM)

# molecule, log10 Ki
rows = [
    ("CN(CCOc1cc2ccccn2n1)Cc1ccccc1 [Example 24, oxalate]", 0.65),
    ("CC(C)(C)C1CCN(CCOc2cc3n(n2)CCCC3)CC1 [Example 66, maleate]", 0.74),
    ("c1ccn2nc(OCCCCN3CCN(C4CCCCC4)CC3)cc2c1 [Example 29, dimaleate]", 1.05),
    ("c1ccn2nc(COCCCCN3CCN(C4CCCCC4)CC3)cc2c1 [Example 10, maleate]", 1.88),
    ("c1c(OCCN2CCN(C3CCCCC3)CC2)nn2c1CCCC2 [Example 71, maleate]", 1.59),
    ("CCCN(CCOc1cc2ccccn2n1)CC1CC1 [Example 43, maleate]", 1.45),
    ("c1c(OCCCCNC23CC4CC(CC(C4)C2)C3)nn2c1CCCC2 [Example 83, maleate]", 1.54),
    ("c1ccn2nc(OCCCCN3CC[C@H]4CCCC[C@@H]4C3)cc2c1 [Example 51, maleate]", 0.92),
    ("c1c(OCCNC23CC4CC(CC(C4)C2)C3)nn2c1CCCC2 [Example 75, maleate]", 1.50),
    ("c1c(OCCCCN2CCSCC2)nn2c1CCCC2 [Example 86, maleate]", 0.92),
    ("CN(CCCCOc1cc2ccccn2n1)Cc1ccccc1 [Example 22, oxalate]", 0.56),
    ("c1c(OCCCCN2CCN(C3CCCCC3)CC2)nn2c1CCCC2 [Example 69, maleate]", 1.62),
    ("c1c(OCCCCN2CCCCC2)nn2c1CCCC2 [Example 60, oxalate]", 1.61),
    ("CN1CCCN(CCCCOc2cc3n(n2)CCCC3)CC1 [Example 96, maleate]", 2.26),
    ("c1c(OCCCCN2CCCOCC2)nn2c1CCCC2 [Example 89, maleate]", 1.00),
    ("c1ccn2nc(OCCCCNC3CCCCC3)cc2c1 [Example 50, maleate]", 0.99),
    ("c1c(OCCN2CCCCCC2)nn2c1CCCC2 [Example 53, maleate]", 1.41),
    ("c1ccn2nc(OCCN3CCN(C4CCCCC4)CC3)cc2c1 [Example 47, dimaleate]", 1.15),
    ("c1ccc(C2CCN(CCCCOc3cc4ccccn4n3)CC2)cc1 [Example 21, oxalate]", 0.58),
    ("CN(CCOc1cc2n(n1)CCCC2)Cc1ccccc1 [Example 64, oxalate]", 1.19),
    ("CN(CCCCOc1cc2ccccn2n1)CCc1ccccc1 [Example 31, hydrochloride]", 1.32),
    ("CC(C)(C)C1CCN(CCCCOc2nn3c(c2Cl)CCCC3)CC1 [Example 105, maleate]", 1.12),
    ("CCCN(CCOc1cc2n(n1)CCCC2)CC1CC1 [Example 90, maleate]", 1.45),
    ("c1c(OCCCN2CCCCC2)nn2c1CCCC2 [Example 99, maleate]", 1.99),
    ("CC(C)(C)C1CCN(CCCCOc2cc3ccccn3n2)CC1 [Example 30, hydrochloride]", 0.79),
    ("c1ccn2nc(COCCCCNC34CC5CC(CC(C5)C3)C4)cc2c1 [Example 5, maleate]", 1.63),
    ("CN(CCOc1nn2ccccc2c1I)Cc1ccccc1 [Example 106, oxalate]", 0.76),
    ("c1ccn2nc(OCCCCN3CCC4CCCCC4C3)cc2c1 (stereo not shown) [Example 34, fumarate]", 0.76),
    ("CN(CCCCOc1cc2ccccn2n1)Cc1ccncc1 [Example 32, dihydrochloride]", 1.16),
    ("c1ccc2c(c1)CCN(CCCCOCc1cc3ccccn3n1)C2 [Example 4, maleate]", 1.68),
    ("c1c(OCCCCN2CCC3CCCCC3C2)nn2c1CCCC2 (stereo not shown) [Example 68, maleate]", 0.86),
    ("CC(C)(C)C1CCN(CCOc2cc3ccccn3n2)CC1 [Example 39, maleate]", 0.80),
    ("CN1CCN(CCCCOc2cc3n(n2)CCCC3)CC1 [Example 93, maleate]", 2.22),
    ("c1c(OCCCCN2CC[C@H]3CCCC[C@@H]3C2)nn2c1CCCC2 [Example 81, maleate]", 1.11),
    ("CN(CCOc1nn2c(c1I)CCCC2)Cc1ccccc1 [Example 107, oxalate]", 0.47),
    ("c1ccc2c(c1)CCN(CCCCOc1cc3ccccn3n1)C2 [Example 36, maleate]", 1.30),
    ("CCCN(CCCCOc1cc2ccccn2n1)CC1CC1 [Example 35, maleate]", 1.03),
]

---

# σ1-receptor (Cavia porcellus, UniProt Q60492): pKi values follow
pKi: −log10 of the molar value. Where a name gives a salt, the structure may show the parent alone.

# compound, pKi
data = [
    ("c1ccc(C2CCN(CCCCOc3cc4n(n3)CCCC4)CC2)cc1 [Example 63, oxalate]", 8.04),
    ("CCN1CCN(CCCCOc2cc3n(n2)CCCC3)CC1 [Example 98, maleate]", 6.86),
    ("CN(CCOc1cc2ccccn2n1)C1CCN(Cc2ccccc2)CC1 [Example 41, dimaleate]", 7.83),
    ("CN(CCCCOc1cc2ccccn2n1)C1CCN(Cc2ccccc2)CC1 [Example 12, difumarate]", 7.71),
    ("c1c(OCCCCN2CCOCC2)nn2c1CCCC2 [Example 56, oxalate]", 6.74),
    ("c1c(OCCCCNC2CCCCC2)nn2c1CCCC2 [Example 85, maleate]", 7.37),
    ("CCCN(CCCCOc1cc2n(n1)CCCC2)CC1CC1 [Example 80, maleate]", 7.60),
    ("CN(CCOc1cc2n(n1)CCCC2)C1CCN(Cc2ccccc2)CC1 [Example 72, maleate]", 7.46),
    ("c1c(OCCCCN2CCCCC2)nn2c1CCCC2 [Example 61, maleate]", 7.55),
    ("CC(C)(C)C1CCN(CCCCOCc2cc3ccccn3n2)CC1 [Example 1, maleate]", 7.79),
    ("CC(C)N1CCN(CCOc2cc3n(n2)CCCC3)CC1 [Example 91, maleate]", 6.71),
    ("c1c(OCCCN2CCN(C3CCCCC3)CC2)nn2c1CCCC2 [Example 100, maleate]", 7.43),
    ("c1ccn2nc(OCCCCNC34CC5CC(CC(C5)C3)C4)cc2c1 [Example 37, maleate]", 7.85),
    ("CCCN(CCCCOCc1cc2ccccn2n1)CC1CC1 [Example 3, maleate]", 7.05),
    ("c1ccn2nc(OCCCCN3CCCCCC3)cc2c1 [Example 49, maleate]", 8.15),
    ("c1ccn2nc(OCCN3CCC4CCCCC4C3)cc2c1 (stereo not shown) [Example 42, maleate]", 8.44),
    ("CC(C)N1CCN(CCCCOc2cc3n(n2)CCCC3)CC1 [Example 92, maleate]", 6.74),
    ("c1ccn2nc(OCCCCN3CCCCC3)cc2c1 [Example 18, oxalate]", 7.83),
    ("c1ccn2nc(COCCN3CCCCCC3)cc2c1 [Example 2, maleate]", 7.42),
]
